The measured values listed here are drawn from ChEMBL document CHEMBL3797203.

pIC50: −log10 of the molar value.
The listing below reports pIC50 for compounds tested on Urokinase-type plasminogen activator (Homo sapiens).

Smiles Structure	Subject Of Test	pIC50
CC(C)C[C@H](c1nc2ccc(C(=O)N[C@H](C#N)CCCCN)cc2n1C)N1C(=O)CN(c2ccc(Oc3ccccc3)cc2)C1=O	Urokinase-type plasminogen activator (Homo sapiens)	3.82

input: What does the record list as pIC50 for CC(C)[C@H](c1nc2ccc(C(=O)N[C@H](C#N)CCCCN)cc2n1C)N1C(=O)CN(c2ccc(Oc3ccccc3)cc2)C1=O ?
output: < 3.70

input: Input CC[C@@H](C)[C@H](c1nc2ccc(C(=O)N[C@H](C#N)CCCCN)cc2n1C)N1C(=O)CN(c2ccc(Oc3ccccc3)cc2)C1=O
output: < 3.70

input: What do you get for C[C@@H](c1nc2ccc(C(=O)N[C@H](C#N)CCCCN)cc2n1C)N1C(=O)CN(c2ccc(Oc3ccccc3)cc2)C1=O ?
output: < 3.70

----------
- Subject Of Test: UniProtKB P00747
- Sequence (P00747 97-580 limits assumed): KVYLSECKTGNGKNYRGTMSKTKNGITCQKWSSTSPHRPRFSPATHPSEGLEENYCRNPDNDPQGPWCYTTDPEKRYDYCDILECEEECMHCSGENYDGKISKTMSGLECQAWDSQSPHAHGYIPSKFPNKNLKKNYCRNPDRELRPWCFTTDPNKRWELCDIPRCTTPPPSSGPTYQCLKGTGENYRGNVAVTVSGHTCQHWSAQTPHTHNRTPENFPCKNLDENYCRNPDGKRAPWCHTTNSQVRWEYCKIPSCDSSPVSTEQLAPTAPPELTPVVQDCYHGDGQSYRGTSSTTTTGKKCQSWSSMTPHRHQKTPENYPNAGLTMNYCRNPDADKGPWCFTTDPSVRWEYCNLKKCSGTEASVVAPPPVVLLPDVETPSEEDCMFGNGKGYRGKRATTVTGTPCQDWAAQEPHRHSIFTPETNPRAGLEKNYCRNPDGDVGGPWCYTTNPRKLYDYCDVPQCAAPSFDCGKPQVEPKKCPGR
- Sequence (P00747 581-810 limits assumed): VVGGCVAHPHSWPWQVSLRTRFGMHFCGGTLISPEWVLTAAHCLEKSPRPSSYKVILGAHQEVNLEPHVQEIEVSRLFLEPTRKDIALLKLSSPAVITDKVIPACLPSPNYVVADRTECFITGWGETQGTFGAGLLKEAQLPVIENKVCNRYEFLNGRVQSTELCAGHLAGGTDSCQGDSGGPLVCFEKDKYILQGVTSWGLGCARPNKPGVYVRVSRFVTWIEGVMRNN
pIC50: −log10 of the molar value.
Measure Name: pIC50

Use the examples below as a reference point.
Smiles Structure	Subject Of Test	Value Reported
CC(C)[C@@H](c1nc2ccc(C(=O)N[C@H](C#N)CCCCN)cc2n1C)N1C(=O)CN(c2ccc(Oc3ccccc3)cc2)C1=O	UniProtKB P00747	4.55
CC(C)C[C@H](c1nc2ccc(C(=O)N[C@H](C#N)CCCCN)cc2n1C)N1C(=O)CN(c2ccc(Oc3ccccc3)cc2)C1=O	UniProtKB P00747	5.11

(A) C[C@H](c1nc2ccc(C(=O)N[C@H](C#N)CCCCN)cc2n1C)N1C(=O)CN(c2ccc(Oc3ccccc3)cc2)C1=O
(B) C[C@H](c1nc2ccc(C(=O)N[C@H](C#N)CCCCN)cc2n1C)N1C(=O)CN(c2ccc(F)cc2)C1=O
input: Given A and given B , which shows the smaller recorded pIC50? Mark your answer with the label of the selected entry.
output: B
